System: IGROV1 ovarian
measurement-protocol: NCI-60 one-dose screen, 48 h (100 = growth as untreated, 0 = no growth, -100 = all killed)
test-settings: 10 µM unless noted
Compounds without any hit were thinned out: in the full panel of roughly 83,000, 20% have a hit. Calls of active or inactive are those of the source. Rule for the calls: active = growth percent below 10; inactive = the rest.
Measured growth, listed per entry for reference.

compound	observation-type	result
CC/C(=C(\c1ccc(O)cc1)c1ccc(OCCN(C)CCN(C)C(=O)CCCCC(=O)c2c(C)[nH]c(/C=C3\N=C(c4ccc[nH]4)C=C3OC)c2C)cc1)c1ccccc1	growth	89.5% (inactive)

Qu. Reported growth for `CC[C@@H](C)OC(=O)c1nn(C(C)=O)c2ccccc12` : what is it?
Ans. 110% (inactive)

Qu. // query: `COc1ccc(-c2csc(NC(=O)CN3CCN(c4cc5c(cc4F)c(=O)c(C(=O)O)cn5C4CC4)CC3)n2)cc1`
Ans. 38.5% (inactive)

Qu. `C=C1C(=O)O[C@H]2[C@H]1CC/C(Cn1cc(Cn3ccc4cc(Cl)ccc43)nn1)=C\CC[C@@]1(C)O[C@@H]21` ?
Ans. 2.27% (active)

Qu. And what about the compound CCN(CC)CC(C)Nc1ccc([N+](=O)[O-])c2sc3ccccc3c(=O)c12 (stereo not drawn) ?
Ans. 22.3% (inactive)

Qu. Now give it for `CC[C@]12C=CCN3CC[C@@]4(c5ccc(OC)cc5N(C)[C@H]4[C@@](O)(C(=O)OC)[C@@H]1OC(=O)CCC(=O)N[C@@H](Cc1c[nH]c4ccccc14)C(=O)OC)[C@@H]32` too.
Ans. 101% (inactive)

Qu. Follow-up entry: `O=C1C[C@H](N2C(=O)c3ccccc3S2(=O)=O)C2CO[C@@H]1O2`
Ans. 103% (inactive)

Qu. Another compound: `Cn1c2ccccc2c2c3[nH]c(=O)[nH]c(=O)c3c3c4ccccc4n(C)c3c21`
Ans. 22.5% (inactive)

Qu. And for OC(c1cc(-c2ccccc2)nc2ccc(Cl)cc12)C1CCCCN1 (stereo not drawn) ?
Ans. 53.4% (inactive)

Qu. Same question, `O=C1C(Cl)=C(Cl)C(=O)c2c1nc1n2CCCC1` this time
Ans. 104% (inactive)

Qu. Please do the same for `Oc1ccc2c(=S)cc(-c3ccc(Br)cc3)oc2c1O` as well.
Ans. 19% (inactive)

Qu. Query `CCOC(=O)c1cnc2ccc(Br)cc2c1Nc1cccc(S(=O)(=O)NC)c1` next
Ans. 89.5% (inactive)

Qu. What do we get for `O=C(/C=C\c1ccc2ccccc2n1)c1cc(Cl)ccc1O` ?
Ans. 86.1% (inactive)

Numbers sourced from PubChem BioAssay (NCI).
